# assay_system: JAK1 (Homo sapiens, UniProt P23458)
# Construct: 5 μl of catalytic domain recombinant Kinase enzyme+Tyr peptide substrate (Invitrogen, Calif.)
# Sequence (P23458 875-1153 limits assumed): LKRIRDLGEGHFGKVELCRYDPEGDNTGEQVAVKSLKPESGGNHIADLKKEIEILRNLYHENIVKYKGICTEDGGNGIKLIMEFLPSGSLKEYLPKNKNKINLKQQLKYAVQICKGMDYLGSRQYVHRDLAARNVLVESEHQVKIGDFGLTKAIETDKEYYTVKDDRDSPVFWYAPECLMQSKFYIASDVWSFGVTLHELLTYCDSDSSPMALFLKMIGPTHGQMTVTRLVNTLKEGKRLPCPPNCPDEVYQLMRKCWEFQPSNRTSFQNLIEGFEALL
# test_protocol: Z'-LYTE kinase assay, JAK1 tyrosine phosphorylation activity
# assay_context: read-out: JAK 1 IC50
parameter_measured: IC50

Consider the worked cases shown below.
CC(=O)Nc1cccc(Nc2ncc(C(N)=O)c(NCC3CCCN(S(C)(=O)=O)C3)n2)c1 (centres unmarked) : 10 to 100 nM
NC(=O)c1cnc(Nc2cccc(NC(=O)N3CCOCC3)c2)nc1NCc1cccc(F)c1 : 10 to 100 nM
CC(=O)N(C)c1cccc(Nc2ncc(C(N)=O)c(NCC3CC3)n2)c1 : 10 to 100 nM
CC(=O)Nc1cccc(Nc2ncc(C(N)=O)c(NCC3CCCN(C(N)=O)C3)n2)c1 (centres unmarked) : 10 to 100 nM
NC(=O)c1cnc(Nc2cccc(NC(=O)N3CCOCC3)c2)cc1N[C@H](CO)c1ccccc1 : 100 to 1000 nM
COCC(=O)Nc1cccc(Nc2ncc(C(N)=O)c(N[C@H](C)c3ccccc3)n2)c1 : 100 to 1000 nM

Hi team, please reply with IC50 for each item in this list.
1. NC(=O)c1cnc(Nc2cccc(NC(=O)N3CCCC3)c2)nc1NCC1CC1
2. CC(=O)Nc1cccc(Nc2ncc(C(N)=O)c(N[C@@H](c3ccccc3)C3CC3)n2)c1

Solution:
10 to 100 nM
100 to 1000 nM

* * *

# assay_system: JAK2 (Homo sapiens, UniProt O60674)
# Construct: 5 μl of catalytic domain recombinant Kinase enzyme+Tyr peptide substrate (Invitrogen, Calif.)
# Sequence (O60674 849-1124 limits assumed): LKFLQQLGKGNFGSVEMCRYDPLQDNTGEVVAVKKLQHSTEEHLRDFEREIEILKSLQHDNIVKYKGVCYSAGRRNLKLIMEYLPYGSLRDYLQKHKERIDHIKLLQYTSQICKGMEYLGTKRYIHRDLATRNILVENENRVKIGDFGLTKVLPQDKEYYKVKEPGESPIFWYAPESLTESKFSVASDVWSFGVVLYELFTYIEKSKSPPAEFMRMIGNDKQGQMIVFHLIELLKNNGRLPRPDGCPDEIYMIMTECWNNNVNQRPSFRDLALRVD
# test_protocol: Z'-LYTE kinase assay, JAK2 tyrosine phosphorylation activity
pIC50: −log10 of the molar value.
parameter_measured: pIC50

Consider the worked cases shown below.
NC(=O)c1cnc(Nc2ccc(Cl)c(NC(=O)N3CCCC3)c2)nc1NCC1CC1 [Example 174] : 6.00 to 7.00
C[C@@H](Nc1nc(Nc2ccc(Cl)c(NC(=O)NC3CCC3)c2)ncc1C(N)=O)c1ccccc1 [Example 111] : < 6.00
C[C@@H](Nc1nc(Nc2cccc(NC(=O)[C@@H]3CCCO3)c2)ncc1C(N)=O)c1ccccc1 [Example 207] : 7.00 to 8.00

Please look at the following molecule next.
Exercise: Short answer please: pIC50, JAK2 (Homo sapiens, UniProt O60674), entry CC(=O)Nc1cc(Nc2ncc(C(N)=O)c(NCc3cccc(F)c3)n2)ccc1OCCN1CCCC1 [Example 223]
Solution: 8.00 to 9.00

* * *

Would you mind telling me the reported pIC50 of each entry?
# assay_system: JAK3 (Homo sapiens)
# Construct: 5 μl of catalytic domain recombinant Kinase enzyme+Tyr peptide substrate (Invitrogen, Calif.)
# Sequence (P52333 822-1111 limits assumed): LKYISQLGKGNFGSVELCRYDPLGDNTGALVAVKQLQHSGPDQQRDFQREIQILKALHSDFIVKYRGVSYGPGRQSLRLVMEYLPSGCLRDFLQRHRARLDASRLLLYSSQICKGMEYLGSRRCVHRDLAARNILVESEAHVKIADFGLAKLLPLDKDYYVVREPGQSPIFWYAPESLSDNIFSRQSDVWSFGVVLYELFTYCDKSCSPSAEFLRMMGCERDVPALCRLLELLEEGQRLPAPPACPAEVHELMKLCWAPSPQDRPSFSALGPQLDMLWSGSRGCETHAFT
# test_protocol: Z'-LYTE kinase assay, JAK3 tyrosine phosphorylation activity
pIC50: −log10 of the molar value.

Consider the worked cases shown below.
CC[C@H](C)[C@@H](CO)Nc1nc(Nc2cccc(NC(C)=O)c2)ncc1C(N)=O [Example 73] : 8.00 to 9.00
CNC(=O)c1cnc(Nc2cccc(NC(C)=O)c2)nc1NCc1ccccc1 [Example 112] : < 6.00
CC(=O)Nc1cccc(Nc2ncc(C(N)=O)c(NCC(C)C)n2)c1 [Example 235] : 8.00 to 9.00
NC(=O)c1cnc(Nc2cccc(NC(=O)[C@H]3CCCO3)c2)nc1NCc1ccccc1 [Example 202] : 8.00 to 9.00
CC(=O)Nc1cccc(Nc2ncc(C(N)=O)c(NCc3cccc(Cl)c3)n2)c1 [Example 101] : 8.00 to 9.00
NC(=O)c1cnc(Nc2ccc(Cl)c(NC(=O)N3CCCC3)c2)nc1NCc1ccccc1 [Example 130] : 8.00 to 9.00
CC(=O)Nc1cccc(Nc2ncc(C(N)=O)c(NCCN3CCCC3)n2)c1 [Example 63] : 6.00 to 7.00
NC(=O)c1cnc(Nc2ccc(Cl)c(NC(=O)N3CCCC3)c2)nc1NCc1cccc(Cl)c1 [Example 173] : 7.00 to 8.00
C[C@@H](Nc1nc(Nc2cccc(NC(=O)N3CCC[C@@H]3C)c2)ncc1C(N)=O)c1ccccc1 [Example 137] : 8.00 to 9.00
C[C@@H](Nc1nc(Nc2cccc(NC(=O)N3CC[C@H](O)C3)c2)ncc1C(N)=O)c1ccccc1 [Example 128] : > 9.00

Hi team, please reply with pIC50 for each item in this list.
1. CC(=O)Nc1cccc(Nc2cc(N[C@H](CO)c3ccccc3)c(C(N)=O)cn2)c1 [Example 316]
2. NC(=O)c1cnc(Nc2ccc(F)c(NC(=O)N3CCCC3)c2)nc1NCc1ccccc1F [Example 288]
3. CC(=O)Nc1cccc(Nc2ncc(C(N)=O)c(Nc3cccc(-c4ncccn4)c3)n2)c1 [Example 199]

Solution:
7.00 to 8.00
8.00 to 9.00
7.00 to 8.00

Hi team, please reply with pIC50 for each item in this list.
1. CC(C)[C@H](C)Nc1nc(Nc2ccc(Cl)c(NC(=O)N3CCCC3)c2)ncc1C(N)=O [Example 248]
2. CC(=O)Nc1cccc(Nc2cc(NC3Cc4ccccc4C3)c(C(N)=O)cn2)c1 [Example 333]
3. CC(=O)Nc1cccc(Nc2ncc(C(N)=O)c(NC3CCOCC3)n2)c1 [Example 75]
4. NC(=O)c1cnc(Nc2cccc(NC(=O)C3CCC3)c2)nc1NCc1ccccc1 [Example 27]

Solution:
1. 7.00 to 8.00
2. 6.00 to 7.00
3. 8.00 to 9.00
4. 8.00 to 9.00

* * *

# assay_system: JAK2 (Homo sapiens)
# Construct: 5 μl of catalytic domain recombinant Kinase enzyme+Tyr peptide substrate (Invitrogen, Calif.)
# test_protocol: Z'-LYTE kinase assay, JAK2 tyrosine phosphorylation activity
pIC50: −log10 of the molar value.
parameter_measured: pIC50

Consider the worked cases shown below.
NC(=O)c1cnc(Nc2ccc(Cl)c(NC(=O)N3CCCCC3)c2)nc1NCc1ccccc1 : < 6.00
CC(=O)Nc1cccc(Nc2ncc(C(N)=O)c(NC3CCC3)n2)c1 : 7.00 to 8.00
CC(=O)Nc1cccc(Nc2ncc(C(N)=O)c(NC3Cc4ccccc4C3)n2)c1 : 7.00 to 8.00
COCC(=O)Nc1cccc(Nc2ncc(C(N)=O)c(NC3CCC3)n2)c1 : 7.00 to 8.00
CC(=O)Nc1cc(Nc2ncc(C(N)=O)c(NCc3ccccc3)n2)ccc1OCCN1CCCC1 : 7.00 to 8.00
NC(=O)c1cnc(Nc2cccc(NC(=O)N3CCCC3)c2)nc1NCc1cccc(Cl)c1 : 7.00 to 8.00
CC(=O)Nc1cccc(Nc2cc(NCc3ccccc3)c(C(N)=O)cn2)c1 : 6.00 to 7.00

Please look at the following molecule next.
Exercise: What value of pIC50 has been recorded for this entry: CC(=O)Nc1cccc(Nc2ncc(C(N)=O)c(NCC3CCCN(S(C)(=O)=O)C3)n2)c1 (centres unmarked)
Solution: 7.00 to 8.00

* * *

# assay_system: JAK2 (Homo sapiens, UniProt O60674)
# Construct: 5 μl of catalytic domain recombinant Kinase enzyme+Tyr peptide substrate (Invitrogen, Calif.)
# test_protocol: Z'-LYTE kinase assay, JAK2 tyrosine phosphorylation activity
Would you mind telling me the reported IC50 of each entry?

CC(=O)Nc1cccc(Nc2ncc(C(N)=O)c(NCC3CCCNC3)n2)c1 (centres unmarked) : 10 to 100 nM

Hi team, please reply with IC50 for each item in this list.
1. NC(=O)c1cnc(Nc2cccc(NC(=O)C3CC3)c2)nc1NCC(F)(F)F
2. CC(=O)Nc1cccc(Nc2ncc(C(N)=O)c(NCC3CCCN(C(C)=O)C3)n2)c1 (centres unmarked)
3. CCC(=O)Nc1cccc(Nc2ncc(C(N)=O)c(NCc3ccccc3)n2)c1

Solution:
1: 100 to 1000 nM; 2: 10 to 100 nM; 3: 10 to 100 nM

Hi team, please reply with IC50 for each item in this list.
1. NC(=O)c1cnc(Nc2ccc(F)c(NC(=O)N3CCC3)c2)cc1N[C@H](CO)c1ccccc1
2. NC(=O)c1cnc(Nc2cccc(NC(=O)N3CCCC3)c2)cc1NCc1ccccc1
3. CC(=O)Nc1cccc(Nc2cc(NCc3ccc(F)cc3)c(C(N)=O)cn2)c1
4. N#CCC(=O)Nc1cccc(Nc2ncc(C(N)=O)c(NCc3cccc(F)c3)n2)c1

Solution:
1: 100 to 1000 nM; 2: 100 to 1000 nM; 3: 100 to 1000 nM; 4: 1 to 10 nM

* * *

# assay_system: JAK2 (Homo sapiens, UniProt O60674)
# Construct: 5 μl of catalytic domain recombinant Kinase enzyme+Tyr peptide substrate (Invitrogen, Calif.)
# test_protocol: Z'-LYTE kinase assay, JAK2 tyrosine phosphorylation activity
parameter_measured: IC50

CC(=O)Nc1cccc(Nc2ncc(C(N)=O)c(NCc3cccc(F)c3F)n2)c1 : 0.01 to 0.1 µM
CC[C@H](C)Nc1nc(Nc2ccc(Cl)c(NC(=O)N3CCCC3)c2)ncc1C(N)=O : 0.1 to 1 µM
CCNC(=O)Nc1cccc(Nc2ncc(C(N)=O)c(NC3CCCC3)n2)c1 : 0.01 to 0.1 µM

Please look at the following compound next.
Exercise: What value of IC50 has been recorded for this entry: CC(=O)Nc1cc(Nc2ncc(C(N)=O)c(Nc3cccc4nsnc34)n2)ccc1OCCN(C)C
Solution: 0.001 to 0.01 µM
